These data points were gathered from paper PMC6268433.

Please respond with reported pIC50 for every item in the list.
# System: RNA synthesis in CEM cells
# protocol_details: Antimetabolic activity: [5-3H]Urd incorporation (RNA synthesis) in CEM cell cultures
# Format: cell-based
# condition_info: Homo sapiens, CCRF-CEM, ~20 h, TCA-insoluble material
FYI, pIC50 means -log10 of a concentration in mol per litre.

q: Consider the compound shown here: O=C(Nc1ccc(Oc2ccnc(C(=O)NCCc3ccccc3)c2)cc1)Nc1ccc(Cl)c(C(F)(F)F)c1 What is its recorded pIC50?
a: 5.18

q: Consider the compound shown here: Nc1ccc(Oc2ccnc(C(=O)NCCc3ccccc3)c2)cc1 What is its recorded pIC50?
a: 4.30

q: Consider the compound shown here: CNC(=O)c1cc(Oc2ccc(NC(=O)Nc3ccc(Cl)c(C(F)(F)F)c3)cc2)ccn1 What is its recorded pIC50?
a: 5.15

q: Consider the compound shown here: O=C(Nc1ccc(Oc2ccnc(C(=O)NC3CCCC3)c2)cc1)Nc1ccc(Cl)c(C(F)(F)F)c1 What is its recorded pIC50?
a: 5.11

q: Consider the compound shown here: Nc1ccc(Oc2ccnc(C(=O)NCC3CCCCC3)c2)cc1 What is its recorded pIC50?
a: 4.04

q: Consider the compound shown here: O=C(Nc1ccc(Oc2ccnc(C(=O)NCC3CCCCC3)c2)cc1)Nc1ccc(Cl)c(C(F)(F)F)c1 What is its recorded pIC50?
a: 4.91

###

# Test system: protein synthesis in CEM cells
# protocol_details: Antimetabolic activity: [4,5-3H]Leu incorporation (protein synthesis) in CEM cell cultures
# Assay type: cell-based
# condition_info: Homo sapiens, CCRF-CEM, ~20 h, TCA-insoluble material
Please respond with reported IC50 for every item in the list.
The reply should be a number in µM, with the unit left off.

q: Consider the compound shown here: CNC(=O)c1cc(Oc2ccc(NC(=O)Nc3ccc(Cl)c(C(F)(F)F)c3)cc2)ccn1 What is its recorded IC50?
a: 12

q: Consider the compound shown here: O=C(Nc1ccc(Oc2ccnc(C(=O)NCCc3ccccc3)c2)cc1)Nc1ccc(Cl)c(C(F)(F)F)c1 What is its recorded IC50?
a: 11.8

q: Consider the compound shown here: Nc1ccc(Oc2ccnc(C(=O)NCC3CCCCC3)c2)cc1 What is its recorded IC50?
a: 70.6

q: Consider the compound shown here: O=C(Nc1ccc(Oc2ccnc(C(=O)NC3CCCC3)c2)cc1)Nc1ccc(Cl)c(C(F)(F)F)c1 What is its recorded IC50?
a: 6.1

q: Consider the compound shown here: O=C(Nc1ccc(Oc2ccnc(C(=O)NCC3CCCCC3)c2)cc1)Nc1ccc(Cl)c(C(F)(F)F)c1 What is its recorded IC50?
a: 27.4

###

observation_type: melting point

q: Consider the compound shown here: Nc1ccc(Oc2ccnc(C(=O)NCC3CCCCC3)c2)cc1 [Compound 3c] What is its recorded melting point?
a: 135 to 137 °C

q: Consider the compound shown here: O=C(NCC1CCCCC1)c1cc(Cl)ccn1 [Compound 2c] What is its recorded melting point?
a: 107 to 108 °C

q: Consider the compound shown here: Nc1ccc(Oc2ccnc(C(=O)NC3CCCCC3)c2)cc1 [Compound 3b] What is its recorded melting point?
a: 150 to 153 °C

q: Consider the compound shown here: O=C(NCc1ccccc1)c1cc(Cl)ccn1 [Compound 2d, 4-Chloro-N-benzylpyridine-2-carboxamide] What is its recorded melting point?
a: 70 to 72 °C

q: Consider the compound shown here: O=C(Nc1ccc(Oc2ccnc(C(=O)NCC3CCCCC3)c2)cc1)Nc1ccc(Cl)c(C(F)(F)F)c1 [Compound 4c] What is its recorded melting point?
a: 156 to 160 °C

q: Consider the compound shown here: O=C(NC1CCCCC1)c1cc(Cl)ccn1 [Compound 2b] What is its recorded melting point?
a: 116 to 119 °C

q: Consider the compound shown here: O=C(Nc1ccc(Oc2ccnc(C(=O)NCc3ccccc3)c2)cc1)Nc1ccc(Cl)c(C(F)(F)F)c1 [Compound 4d] What is its recorded melting point?
a: 160 to 163 °C
